assay: Inhibition of beta hematin formation after 5 to 6 hrs by NP40 detergent-based assay
READOUT_KIND: 1/IC50 (µM⁻¹)
State just the number; it will be interpreted in µM⁻¹.

Below, 10 compounds whose answers are already recorded.
[
  {
    "SMILES_TEXT": "O=C(Nc1ccc(-c2nc3ccccc3[nH]2)cc1)c1cc([N+](=O)[O-])cc([N+](=O)[O-])c1",
    "READOUT_KIND": "1/IC50",
    "ENDPOINT_UNIT": "µM⁻¹",
    "REPORTED_VALUE": 0.0752
  },
  {
    "SMILES_TEXT": "O=C(Nc1ccc(-c2nc3ccccc3[nH]2)cc1)c1ccc(Cl)cc1Cl",
    "READOUT_KIND": "1/IC50",
    "ENDPOINT_UNIT": "µM⁻¹",
    "REPORTED_VALUE": 0.0111
  },
  {
    "SMILES_TEXT": "CC(C)(C)c1ccc(C(=O)Nc2ccc(-c3nc4ccccc4[nH]3)cc2)cc1",
    "READOUT_KIND": "1/IC50",
    "ENDPOINT_UNIT": "µM⁻¹",
    "REPORTED_VALUE": 0.0028
  },
  {
    "SMILES_TEXT": "O=C(Nc1ccc(-c2nc3ccccc3[nH]2)cc1)c1cccnc1",
    "READOUT_KIND": "1/IC50",
    "ENDPOINT_UNIT": "µM⁻¹",
    "REPORTED_VALUE": 0.0281
  },
  {
    "SMILES_TEXT": "O=C(Nc1ccc(-c2nc3ccccc3[nH]2)cc1)c1ccco1",
    "READOUT_KIND": "1/IC50",
    "ENDPOINT_UNIT": "µM⁻¹",
    "REPORTED_VALUE": 0.0119
  },
  {
    "SMILES_TEXT": "O=C(Nc1ccc(-c2nc3ccccc3[nH]2)cc1)c1cncc(Br)c1",
    "READOUT_KIND": "1/IC50",
    "ENDPOINT_UNIT": "µM⁻¹",
    "REPORTED_VALUE": 0.0313
  },
  {
    "SMILES_TEXT": "O=C(Nc1ccc(-c2nc3ccccc3[nH]2)cc1)c1cccs1",
    "READOUT_KIND": "1/IC50",
    "ENDPOINT_UNIT": "µM⁻¹",
    "REPORTED_VALUE": 0.0236
  },
  {
    "SMILES_TEXT": "O=C(Nc1ccc(-c2nc3ccccc3[nH]2)cc1)c1ccccc1",
    "READOUT_KIND": "1/IC50",
    "ENDPOINT_UNIT": "µM⁻¹",
    "REPORTED_VALUE": 0.0003
  },
  {
    "SMILES_TEXT": "O=C(Nc1ccc(-c2nc3ccccc3[nH]2)cc1)c1cc(Cl)nc(Cl)c1",
    "READOUT_KIND": "1/IC50",
    "ENDPOINT_UNIT": "µM⁻¹",
    "REPORTED_VALUE": 0.0595
  },
  {
    "SMILES_TEXT": "O=C(Nc1ccc(-c2nc3ccccc3[nH]2)cc1)c1ccc(Cl)cc1",
    "READOUT_KIND": "1/IC50",
    "ENDPOINT_UNIT": "µM⁻¹",
    "REPORTED_VALUE": 0.0006
  }
]

// moving on: another record for 1/IC50
Output 1/IC50 of `COc1ccccc1C(=O)Nc1ccc(-c2nc3ccccc3[nH]2)cc1` 0.0257
